Numbers sourced from patent US20260234738A1.

Target: SARS-COV-2 RBD extracellular domain expressed with a C-terminal mouse IgG2a (SARS-CoV-2)
Reported Endpoint: t½

// fetch t½ given entry mAb10971 (antibody, V domains shown) VH: EVQLVESGGGLIQPGGSLRLSCAASGVTVSSNYMSWVRQAPGKGLEWVSVIYSGGSTFYSDSVKGRFSISRDNSKNTLYLQMNSLRAEDTAVYYCARDLYYYGMDVWGQGTTVTVSS VL: DIQLTQSPSFLSASVGDRVTITCRASQGISTYLAWYQQKPGKAPKLLIYAASTLQSGVPSRFSGSGSGTEFTLTISSLQPEDFATYYCQQLDSYPGLTFGGGTKVEIKR ≥ 19.2 h

Respond only with t½ recorded for mAb10957 (antibody, V domains shown) VH: EVQLVESGGGLVQPGGSLRLSCAASGVTVSSNYMSWVRQAPGKGLEWVSVIYSGGSTFYADSVKGRFTISRDNSKNTLFLQMNSLRIEDTAVYYCARDLGPYGMDVWGQGTTVTVSS VL: DIQLTQSPSFLSASVGDRVTITCRASQGISSYLAWYQQKPGKAPKLLIYAASTLQSGVPSRFSGSGSGTQFILTISSLQPEDFATYYCQQLNSYPGFTFGPGTKVDIKR ≥ 19.2 h

Please list t½ recorded for the binder mAb10986 (antibody, V domains shown) VH: EVQLVESGGGLVQPGGSLRLSCAASEFTVSSNYMSWVRQAPGKGLEWVSVIYSGGSTFYADSVKGRFTISRDNSKNTLYLQMNSLRAEDTAVYYCARALPYGDLHFDYWGQGTLVTVSS VL: QSVLTQPPSVSGAPGQRVTISCTGSSSNIGTGYDVHWYQQLPGTAPKLLIYGNTNRPSGVPDRFSGSKSGTSASLAITGLQAEDEADYYCQSYDSSLSDSYVFGTGTKVTVLG ≥ 19.2 h
